Reference source for all entries: PubChem BioAssay (NCI)

I'd appreciate it if you could supply TGI values for the items below.
# Test system: KM20L2 colon
# protocol-notes: NCI tumour cell line growth inhibition, 48 h
Enter your answer as a number in µM; do not include the unit.

// query Find the measured TGI of COC(=O)/C=C1\CCC2[C@@H](C(=O)CC3[C@]2(C)CCC[C@@]3(C)C(=O)OC)C1C (some centres not stated) and report it.
// result 80.3

// query For the compound `CC(C)C1=Cc2ccc3c(c2C(=O)C1=O)CCCC3` , give its reported TGI.
// result 42.7

// query # return recorded TGI for input NC(=O)N/N=C(\CC1OC(=O)c2ccccc21)c1ccc([N+](=O)[O-])cc1 (configuration not stated)
// result 96.2

// query In one line, give reported TGI of the entry `c1cc[c]([Ge]([O]c2cccc3cccnc23)([c]2ccccc2)[c]2ccccc2)cc1` .
// result 5.97

// query Let me know recorded TGI for COc1cc([C@@H]2c3cc4c(cc3[C@@H](NCc3ccccc3F)C3COC(=O)[C@@H]32)OCO4)cc(OC)c1O (some centres not stated) , thanks.
// result 8.65

// query Given the compound `CCOC(=O)c1c(CN2CCNCC2)nc2ccc(Cl)cc2c1-c1ccccc1` , write its reported TGI.
// result 6.87

// query Give the value of TGI reported for the following: `O=C(CCN1CCCCC1)Nc1ccc2c(c1)C(=O)c1ccc(NC(=O)CCN3CCCCC3)cc1C2=O`
// result 33.2
